As shown below, each of these compounds has a reported GI50 value.
Tested on: OVCAR-4 ovarian
ASSAY_PROCEDURE: NCI tumour cell line growth inhibition, 48 h

- COMPOUND: "CC1CCN(CCCCCOc2ccc3oc4cc(Cl)ccc4c(=O)c3c2)CC1"
  GI50: "6.22 µM"
- COMPOUND: "CCOC(=O)Nc1cc2c(c(N)n1)N=C(c1ccccc1)[C@H](C)N2"
  GI50: "16.2 µM"
- COMPOUND: "CO/N=C(\\C)c1cccc(Nc2cc(-c3ccccc3)nc3c(O)cccc23)c1"
  GI50: "61.3 µM"
- COMPOUND: "O=C(Nc1ccc(CN2CCOCC2)cc1)c1[nH]ncc1Nc1ncnc2sccc12"
  GI50: "0.6 µM"
- COMPOUND: "O=C(CSC(c1ccccc1)c1ccccc1)N/N=C/c1cccc(Cl)c1"
  GI50: "15 µM"
- COMPOUND: "O=C(c1ccco1)c1nc2cc(F)ccc2[n+]([O-])c1C(F)(F)F"
  GI50: "21.5 µM"
- COMPOUND: "CCOc1cc2c(cc1O)/C(=N\\O)C[C@@H]1[C@@H]2CC[C@]2(C)[C@@H](O)CC[C@@H]12"
  GI50: "8.67 µM"
- COMPOUND: "Cn1c(O)c(C(/C=C/c2ccccc2)=NCCN=C(/C=C/c2ccccc2)c2c(O)n(C)c(=O)n(C)c2=O)c(=O)n(C)c1=O"
  GI50: "13.9 µM"
- COMPOUND: "COc1ccc2c(c1)C(=O)c1c-2c(Nc2ccc(C(C)=O)cc2)nc2ccccc12"
  GI50: "58.3 µM"
- COMPOUND: "CC(=O)c1cc2c(cc1Nc1c3ccccc3nc3occ(Cl)c13)OCO2"
  GI50: "82.9 µM"
- COMPOUND: "C/C(=C\\C1=C(Cl)C(=O)c2ccccc2C1=O)C(=O)O"
  GI50: "19.9 µM"
- COMPOUND: "COc1ccc(C2=NN(C(=O)c3cc(OC)c(OC)c(OC)c3)C(c3ccc(Cl)cc3)C2)cc1OC (stereo unspecified)"
  GI50: "5.22 µM"
- COMPOUND: "Oc1c(CN2CCCC2)cc(COCc2ccc(Br)cc2)c2cccnc12"
  GI50: "0.508 µM"
- COMPOUND: "CCOC(=O)c1c2c(n(Cc3ccccc3)c1C)-c1ccccc1C(=O)C2=O"
  GI50: "10.9 µM"
- COMPOUND: "CC[C@H](Nc1nc(N)nc(C)c1C#N)c1nc2cccc(NCc3ccc(C(=O)NO)cc3)c2c(=O)n1-c1ccccc1"
  GI50: "2.01 µM"
- COMPOUND: "CCOC(=O)/C=C/c1cc2cc(-c3csc4ccccc34)ccc2[nH]1"
  GI50: "7.1 µM"

Taken from PubChem BioAssay (NCI).
